Tested on: DLBCL (GBC) cell lines
Assay Text: Combination of BO-1055 with PUH71, TT46, bortezomib, doxorubicin (Table 25)
Format: cell-based
Experimental Setup: Homo sapiens, OCI-LY19, OCI-LY19; read-out: IC50 single agent
Property Name: IC50

CC(C)NCCCn1c(Sc2cc3c(cc2I)OCO3)nc2c(N)ncnc21 [PUH71] tested on DLBCL (GBC) cell lines gave IC50: 0.221 µM

----------
Study System: hERG (Homo sapiens, UniProt Q12809)
Sequence (Q12809 whole entry): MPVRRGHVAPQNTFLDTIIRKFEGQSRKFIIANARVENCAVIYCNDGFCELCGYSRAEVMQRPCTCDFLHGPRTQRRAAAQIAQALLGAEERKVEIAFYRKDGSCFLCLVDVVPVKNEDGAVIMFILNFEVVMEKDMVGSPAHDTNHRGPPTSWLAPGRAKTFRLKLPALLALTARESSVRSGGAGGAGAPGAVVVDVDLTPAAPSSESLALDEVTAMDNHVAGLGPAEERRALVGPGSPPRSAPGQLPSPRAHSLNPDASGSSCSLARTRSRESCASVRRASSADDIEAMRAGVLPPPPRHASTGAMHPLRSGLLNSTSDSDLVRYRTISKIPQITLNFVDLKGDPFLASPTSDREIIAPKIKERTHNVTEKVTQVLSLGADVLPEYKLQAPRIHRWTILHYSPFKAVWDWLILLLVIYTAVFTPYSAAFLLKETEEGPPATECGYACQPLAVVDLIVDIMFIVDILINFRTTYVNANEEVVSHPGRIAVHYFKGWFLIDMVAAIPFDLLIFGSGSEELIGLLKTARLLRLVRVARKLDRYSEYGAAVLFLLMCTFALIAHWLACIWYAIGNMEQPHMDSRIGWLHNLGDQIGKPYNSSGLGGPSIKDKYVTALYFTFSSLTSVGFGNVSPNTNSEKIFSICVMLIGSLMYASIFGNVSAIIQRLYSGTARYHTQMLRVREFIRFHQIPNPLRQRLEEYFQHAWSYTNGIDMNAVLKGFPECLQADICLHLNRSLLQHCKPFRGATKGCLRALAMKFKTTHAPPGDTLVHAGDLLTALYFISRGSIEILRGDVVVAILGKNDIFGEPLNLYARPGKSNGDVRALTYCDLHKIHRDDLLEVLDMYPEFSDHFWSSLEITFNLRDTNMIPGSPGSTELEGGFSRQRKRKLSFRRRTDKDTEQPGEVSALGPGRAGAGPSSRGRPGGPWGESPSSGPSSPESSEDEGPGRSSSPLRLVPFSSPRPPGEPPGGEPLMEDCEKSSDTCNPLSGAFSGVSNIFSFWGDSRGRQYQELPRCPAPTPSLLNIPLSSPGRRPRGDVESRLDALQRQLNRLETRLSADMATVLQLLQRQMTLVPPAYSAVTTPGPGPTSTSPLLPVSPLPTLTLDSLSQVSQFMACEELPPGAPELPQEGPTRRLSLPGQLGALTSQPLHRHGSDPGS
Assay Text: in vitro
Property Name: IC50 (µM)
Answers are plain numbers, in µM.

Provide the reported IC50 of each entry below, same order.
1. CN(C)CCNC(=O)c1cccc(NC(=O)Nc2ccc(N(CCCl)CCCl)cc2)c1
2. COc1cccc2c1C(=O)c1c(O)c3c(c(O)c1C2=O)C[C@@](O)(C(=O)CO)C[C@@H]3O[C@H]1C[C@H](N)[C@H](O)[C@H](C)O1

1. 12.6
2. 0.03

----------
Test system: U2932
Experimental Setup: human
Property Name: IC50 (nM)
Numbers only, in nM.

Previously resolved entries follow.
[[record]]
compound = "COc1cccc2c1C(=O)c1c(O)c3c(c(O)c1C2=O)C[C@@](O)(C(=O)CO)C[C@@H]3O[C@H]1C[C@H](N)[C@H](O)[C@H](C)O1 [Doxorubicin]"
unit = "nM"
experimental_value = 50

[[record]]
compound = "CC(C)C[C@H](NC(=O)[C@H](Cc1ccccc1)NC(=O)c1cnccn1)B(O)O [velcade, Bortezomib]"
unit = "nM"
experimental_value = 5


API: the following record is the query input.
// recorded IC50 for CN(C)CCNC(=O)c1cccc(NC(=O)Nc2ccc(N(CCCl)CCCl)cc2)c1 [BO-1055, Ureidomustine] : 2220

----------
Tested on: DLBCL (GBC) cell lines
Assay Text: Combination of BO-1055 with PUH71, TT46, bortezomib, doxorubicin (Table 25)
Type: cell-based
Experimental Setup: Homo sapiens, Farage; read-out: IC50 single agent
Property Name: IC50 (nM)
Answers are plain numbers, in nM.

// recorded IC50 for `CC(C)NCCCn1c(Sc2cc3c(cc2I)OCO3)nc2c(N)ncnc21` : 785

----------
System: H60
Assay Text: Cytotoxicity SCLC 72 hr alamar blue
Assay type: cell-based, human
Property Name: pIC50
Answers are plain numbers, as −log10 of the molar value.

// recorded pIC50 for N.N.[Cl][Pt][Cl] [Cisplatin] : 5.68

----------
System: HCC827
Format: cell-based, human
Property Name: IC50 (µM)
Numbers only, in µM.

`N.N.O=C([O-])C1(C(=O)[O-])CCC1.[Pt+2]` tested on HCC827 gave IC50: 138

----------
System: H1373
Format: cell-based, human
Field: IC50. Provide a value for each of the compounds that follow.
Numbers only, in µM.

[[record]]
compound = "N.N.[Cl][Pt][Cl] [Cisplatin]"
experimental_value = 9.46


// recorded IC50 for `N.N.O=C([O-])C1(C(=O)[O-])CCC1.[Pt+2]` : 29.3

----------
Tested on: MOR
Assay Text: Cytotoxicity NSCLC
Format: cell-based, human
Property Name: IC50 (µM)
Give bare numbers, in µM.

// recorded IC50 for N.N.[Cl][Pt][Cl] [Cisplatin] : 3.9

----------
Field: IC50. Provide a value for each of the molecules that follow.
System: Granta-519
Experimental Setup: human
I'd appreciate it if you wrote the number followed by its unit.

[[record]]
molecule = "CC(C)C[C@H](NC(=O)[C@H](Cc1ccccc1)NC(=O)c1cnccn1)B(O)O [velcade, Bortezomib]"
experimental_value = "8 nM"


API: the following record is the query input.
// recorded IC50 for CC(=O)O[C@H]1C(=O)[C@@]2(C)[C@H]([C@H](OC(=O)c3ccccc3)[C@]3(O)C[C@H](OC(=O)[C@H](O)[C@@H](NC(=O)c4ccccc4)c4ccccc4)C(C)=C1C3(C)C)[C@]1(OC(C)=O)CO[C@@H]1C[C@@H]2O [Paclitaxel] : 49 nM

src = patent US20200246284A1
